measured.on: JAK2 (Homo sapiens)
Construct: endogenous in cells
measurement.protocol: Kinobeads assay, JAK2
experimental.setup: mixed Molt4/Ramos cell lysate, dot blot detection
Catalogue of IC50 readings, one per entry.
metric: IC50

>>> value("Cn1cc(Nc2ncc3cnn(Cc4cccc(OC[C@H]5CCCO5)n4)c3n2)cn1")
"≥ 10 µM"
>>> value("Cc1cccc(Cn2ncc3cnc(Nc4cnn(C)c4)nc32)c1")
"1 to 10 µM"
>>> value("N#Cc1ccccc1Cn1ncc2cnc(Nc3cn[nH]c3)nc21")
"0.1 to 1 µM"
>>> value("COCCn1cc(Nc2ncc3cnn(Cc4ccccc4F)c3n2)cn1")
"1 to 10 µM"
>>> value("COCCOc1cccc(Cn2ncc3cnc(Nc4cnn(CCCN(C)C)c4)nc32)c1")
"1 to 10 µM"

---

measured.on: JAK2 (Homo sapiens, UniProt O60674)
Construct: endogenous in cells
Sequence (O60674 whole entry): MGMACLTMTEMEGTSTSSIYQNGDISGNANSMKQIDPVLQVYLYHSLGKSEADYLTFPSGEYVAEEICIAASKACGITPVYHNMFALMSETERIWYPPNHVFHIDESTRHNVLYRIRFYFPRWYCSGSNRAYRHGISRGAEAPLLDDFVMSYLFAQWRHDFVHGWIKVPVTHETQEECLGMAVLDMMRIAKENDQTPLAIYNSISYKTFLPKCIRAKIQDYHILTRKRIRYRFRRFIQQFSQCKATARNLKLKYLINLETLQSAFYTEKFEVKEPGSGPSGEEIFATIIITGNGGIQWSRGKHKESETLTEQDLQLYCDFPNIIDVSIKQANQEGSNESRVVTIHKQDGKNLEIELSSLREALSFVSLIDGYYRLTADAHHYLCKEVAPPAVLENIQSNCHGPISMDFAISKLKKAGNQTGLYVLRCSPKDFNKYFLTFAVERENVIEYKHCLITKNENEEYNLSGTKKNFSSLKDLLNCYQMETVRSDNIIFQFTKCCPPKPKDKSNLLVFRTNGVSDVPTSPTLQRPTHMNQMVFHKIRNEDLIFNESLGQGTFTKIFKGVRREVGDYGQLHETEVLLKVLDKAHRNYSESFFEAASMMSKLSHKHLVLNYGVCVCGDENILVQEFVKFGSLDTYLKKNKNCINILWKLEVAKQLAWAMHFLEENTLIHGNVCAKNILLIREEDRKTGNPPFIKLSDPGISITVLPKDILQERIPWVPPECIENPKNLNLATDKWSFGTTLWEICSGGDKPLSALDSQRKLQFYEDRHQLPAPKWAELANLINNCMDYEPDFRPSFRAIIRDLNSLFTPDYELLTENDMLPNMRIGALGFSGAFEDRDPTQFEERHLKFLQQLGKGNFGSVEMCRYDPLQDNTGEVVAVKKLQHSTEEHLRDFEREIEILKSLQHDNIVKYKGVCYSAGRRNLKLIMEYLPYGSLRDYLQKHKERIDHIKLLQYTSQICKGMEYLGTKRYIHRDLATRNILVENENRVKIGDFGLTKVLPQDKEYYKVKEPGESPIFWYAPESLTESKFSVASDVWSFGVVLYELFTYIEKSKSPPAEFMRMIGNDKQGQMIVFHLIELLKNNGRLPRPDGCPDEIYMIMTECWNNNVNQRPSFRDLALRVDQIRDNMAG
measurement.protocol: Kinobeads assay, JAK2
experimental.setup: mixed Molt4/Ramos cell lysate, dot blot detection
metric: IC50

>>> value("Cn1cc(Nc2ncc3cnn(CCc4cccc(F)c4)c3n2)cn1")
"1000 to 10000 nM"
>>> value("Cn1cc(Nc2ncc3cnn(Cc4ccccc4NS(=O)(=O)CC(F)(F)F)c3n2)cn1")
"1000 to 10000 nM"
>>> value("OCCn1cc(Nc2ncc3cnn(Cc4c(F)c(F)cc(N5CCNCC5)c4F)c3n2)cn1")
"1000 to 10000 nM"
>>> value("Cn1cc(Nc2ncc3cnn(Cc4cccc(OCCN5CCCCC5)c4)c3n2)cn1")
"≥ 10000 nM"
>>> value("Cn1cc(Nc2ncc3cnn(-c4ccc(S(N)(=O)=O)cc4)c3n2)cn1")
"1000 to 10000 nM"
>>> value("N#Cc1ccccc1Cn1ncc2cnc(Nc3ccon3)nc21")
"≥ 10000 nM"
>>> value("Cn1cc(Nc2ncc3cnn(Cc4cccc(C(N)=O)c4)c3n2)cn1")
"1000 to 10000 nM"
>>> value("N#Cc1ccccc1Cn1ncc2cnc(Nc3cnn(CCO)c3)nc21")
"1000 to 10000 nM"
>>> value("Cn1cc(Nc2ncc3cnn(Cc4cccc5c4OCO5)c3n2)cn1")
"100 to 1000 nM"
>>> value("COCCCOc1cccc(Cn2ncc3cnc(Nc4cnn(C)c4)nc32)c1")
"≥ 10000 nM"
>>> value("Cn1cc(Nc2ncc3cnn(-c4cccc(S(N)(=O)=O)c4)c3n2)cn1")
"1000 to 10000 nM"
>>> value("Fc1ccccc1Cn1ncc2cnc(Nc3cnn(CC(F)F)c3)nc21")
"1000 to 10000 nM"
>>> value("COc1nn(CC(F)F)cc1Nc1ncc2cnn(Cc3cc(F)ccc3C#N)c2n1")
"100 to 1000 nM"
>>> value("Cn1cc(Nc2ncc3cnn(Cc4cccc(F)c4)c3n2)cn1")
"100 to 1000 nM"
>>> value("Cn1cc(Nc2ncc3cnn(Cc4cccc(OCCOCc5ccccc5)c4)c3n2)cn1")
"≥ 10000 nM"
>>> value("Cn1cc(Nc2ncc3cnn(Cc4ccccc4OCC4CC4)c3n2)cn1")
"1000 to 10000 nM"
>>> value("Cc1nn(CC(F)F)cc1Nc1ncc2cnn(Cc3ccccc3C#N)c2n1")
"≥ 10000 nM"
>>> value("Cn1cc(Nc2ncc3cnn(Cc4c(F)ccc(N5CCNCC5)c4F)c3n2)cn1")
"1000 to 10000 nM"
>>> value("COc1nn(CCO)cc1Nc1ncc2cnn(Cc3ccccc3)c2n1")
"1000 to 10000 nM"
